Entries and their inhibition values follow.
target: thymidine phosphorylase (TP) (Escherichia coli); construct: purchased Sigma Aldrich, USA; host or cells: E. coli; test: Thymidine phosphorylase inhibition assay (spectrophotometric, 290 nm); format: biochemical, E. coli; conditions: read-out: Percent Inhibition of thymidine phosphorylase, 10 μL of test compound (0.5 mM in dimethylsulfoxide) per well; <50% regarded inactive
Sequence (P07650 whole entry): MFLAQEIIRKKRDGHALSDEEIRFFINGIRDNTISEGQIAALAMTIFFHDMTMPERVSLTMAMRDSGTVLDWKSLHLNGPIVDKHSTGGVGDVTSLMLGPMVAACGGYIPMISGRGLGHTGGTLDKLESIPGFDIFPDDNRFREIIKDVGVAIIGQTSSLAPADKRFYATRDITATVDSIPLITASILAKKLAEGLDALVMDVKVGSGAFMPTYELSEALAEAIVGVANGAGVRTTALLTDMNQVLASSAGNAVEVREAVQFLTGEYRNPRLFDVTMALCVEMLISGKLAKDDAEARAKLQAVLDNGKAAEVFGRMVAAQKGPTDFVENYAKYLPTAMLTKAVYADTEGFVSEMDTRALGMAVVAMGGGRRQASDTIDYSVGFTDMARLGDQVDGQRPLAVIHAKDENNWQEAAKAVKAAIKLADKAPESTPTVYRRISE
The response must be a number in % with no trailing unit.

# compound, system_tested, unit_of_measurement, inhibition
rows = [
    ("COc1ccccc1/C=N/NC(=O)c1ccc(O)cc1 [Compound 12]", "thymidine phosphorylase (TP) (Escherichia coli)", "%", 99),
    ("COc1ccc(/C=N/NC(=O)c2ccc(O)cc2)cc1 [Compound 10]", "thymidine phosphorylase (TP) (Escherichia coli)", "%", 99.8),
    ("CC/C(=N\\NC(=O)c1ccc(O)cc1)c1cc(O)ccc1O [Compound 29]", "thymidine phosphorylase (TP) (Escherichia coli)", "%", 99),
    ("CCOc1cccc(/C=N/NC(=O)c2ccc(O)cc2)c1O [Compound 24]", "thymidine phosphorylase (TP) (Escherichia coli)", "%", 82.4),
]

Kindly consider the entry below.
Request: Reported inhibition for COc1cccc(/C=N/NC(=O)c2ccc(O)cc2)c1O [Compound 19] : what is it?
Result: 86.9

Measured values drawn from paper PMC6984732 for this set.
